The values you see were collected from patent US20240041042A1.

Tested on: Zea mays (ZEAMX)
Type: in vivo
condition: 20 g/ha, ZEAMX, effect in comparison to untreated controls
endpoint.name: Post-emergence action against ZEAMX in % (crop plant compatibility) (%)
Answers are plain numbers, in %.

                                   molecule       test_system  observed_value
0  O=C(COc1nn(-c2ccnc(Cl)c2)c(-c2ccc(F)nc2)c1Br)NS(=O)(=O)CC(F)(F)F  Zea mays (ZEAMX)               0

Please look at the items below and tell me Post-emergence action against ZEAMX in % (crop plant compatibility) for each one, in order.
1. O=C(O)COc1nn(-c2ncccc2F)c(-c2ccc(F)nc2)c1C1CC1
2. CCCOC(=O)COc1nn(-c2ncccc2F)c(-c2ccc(F)nc2)c1C1CC1
3. COC(=O)[C@@H](C)Oc1nn(-c2ccc(F)cn2)c(-c2ccc(F)nc2)c1Br
4. COC(=O)C1CCCN1C(=O)COc1nn(-c2ccccn2)c(-c2ccc(F)nc2)c1Br (centres unmarked)
5. O=C(O)COc1nn(-c2ncccc2F)c(-c2ccc(F)nc2)c1Br

[A]
1: 10; 2: 0; 3: 10; 4: 10; 5: 10

Parameter requested: Post-emergence action against ZEAMX in % (crop plant compatibility). Apply to each item below.
1. Cc1ncccc1-n1nc(OCC(=O)O)c(Cl)c1-c1cncc(F)c1
2. COC(=O)[C@@H](C)Oc1nn(-c2ccccn2)c(-c2ccc(F)nc2)c1Br
3. CCOC(=O)COc1nn(-c2cccnc2C)c(-c2ccc(F)nc2)c1Br
4. COC(=O)COc1nn(-c2ncccc2F)c(-c2ccnc(F)c2)c1Br
5. CCOC(=O)COc1nn(-c2ncccc2Cl)c(-c2ccc(F)nc2)c1Br
6. COC(=O)COc1nn(-c2ncccc2F)c(-c2ccc(F)nc2)c1Cl

[A]
1: 20; 2: 10; 3: 0; 4: 0; 5: 0; 6: 20

Could you report Post-emergence action against ZEAMX in % (crop plant compatibility) for every entry in the following list?
1. CCOC(=O)CCNC(=O)COc1nn(-c2ncccc2F)c(-c2ccc(OC)nc2)c1Br
2. O=C(COc1nn(-c2ncccc2F)c(-c2ccc(F)nc2)c1C1CC1)OCc1ccccc1
3. CCOC(=O)COc1nn(-c2ncccc2F)c(-c2ccnc(F)c2)c1I
4. Cc1cccnc1-n1nc(OCC(=O)O)c(Cl)c1-c1cncc(F)c1
5. CCOC(=O)COc1nn(-c2ccncc2F)c(-c2ccc(F)nc2)c1Br

[A]
[10, 10, 0, 10, 10]

* * *

Kindly state Post-emergence action against ECHCG in % for each of the entries shown.
Tested on: Echinochloa crus-galli (ECHCG)
method.description: Post-emergence herbicidal action against ECHCG
Type: in vivo
condition: dosage 320 g/ha
Numbers only, in %.

Example entries and their recorded answers appear below.
In [3]: df
Out[3]:
                  compound_structure_string  observed_value
0  COC(=O)[C@@H](C)Oc1nn(-c2ncccc2F)c(-c2ccc(F)nc2)c1Br              90
1  COC(=O)[C@@H](C)Oc1nn(-c2ccnc(Cl)c2)c(-c2ccc(F)nc2)c1Br             100

Now let's try a different one.
[Q] Item `COC(=O)COc1nn(-c2nc(F)ccc2F)c(-c2cncc(F)c2)c1Br` has what recorded Post-emergence action against ECHCG in %?
[A] 80

* * *

Test system: Alopecurus myosuroides (ALOMY)
method.description: Pre-emergence herbicidal action against ALOMY
Assay type: in vivo
condition: 320 g/ha; scored visually after about 3 weeks; 100% = plants have died
Text: Seeds of monocotyledonous and dicotyledonous weed plants and crop plants are placed in plastic or organic planting pots and covered with soil. […] After about 3 weeks, the effect of the preparations is scored visually in comparison with untreated controls as percentages. […]
endpoint.name: Pre-emergence action against ALOMY (%)
One number for each entry, in %.

>>> df
                  compound_structure_string                     test_system  quantity_unit  observed_value
0  C[C@@H](Oc1nn(-c2ccccn2)c(-c2ccc(F)nc2)c1Cl)C(=O)NCC(=O)O  Alopecurus myosuroides (ALOMY)              %             100
1  O=C(O)COc1nn(-c2ccnc(Cl)c2)c(-c2ccc(F)nc2)c1Br  Alopecurus myosuroides (ALOMY)              %              90
2  CC(C)=NOC(=O)[C@@H](C)Oc1nn(-c2ncccc2F)c(-c2ccc(F)nc2)c1Br  Alopecurus myosuroides (ALOMY)              %             100

Consider the record given below.
[Q] Requested read-out: Pre-emergence action against ALOMY. Entry: `CCOC(=O)CNC(=O)COc1nn(-c2ncccc2F)c(-c2ccc(OC)nc2)c1Br`
[A] 100

* * *

Test system: Oryza sativa (ORYSA)
Type: in vivo
condition: pre-emergence, 320 g/ha, crop plant compatibility, in comparison to untreated controls
endpoint.name: Pre-emergence action against ORYSA in % (%)
Numbers only, in %.

>>> df
                                   compound  quantity_unit  observed_value
0  COC(=O)[C@H](C)NC(=O)COc1nn(-c2ccnc(F)c2)c(-c2ccc(F)nc2)c1Br              %              10
1  COC(=O)[C@H](C)COC(=O)COc1nn(-c2ccnc(Cl)c2)c(-c2ccc(F)nc2)c1Br              %              10
2  COC(=O)CNC(=O)COc1nn(-c2cccc(C)n2)c(-c2ccc(F)nc2)c1Br              %              20

Would you mind giving Pre-emergence action against ORYSA in % for every compound in the list below?
1. C=CCNC(=O)COc1nn(-c2ncccc2F)c(-c2ccc(F)nc2)c1Br
2. O=C(CSc1nn(-c2ccccn2)c(-c2cncc(F)c2)c1Br)NC1CC1
3. COC(=O)CCOC(=O)COc1nn(-c2ccnc(F)c2)c(-c2ccc(F)nc2)c1Br
4. COC(=O)CN(C)C(=O)COc1nn(-c2ccnc(Cl)c2)c(-c2ccc(F)nc2)c1Br
5. O=C(O)C1CCN(C(=O)COc2nn(-c3ccccn3)c(-c3ccc(F)nc3)c2Br)CC1

[A]
[0, 20, 20, 0, 0]

Look at each compound and report its Pre-emergence action against ORYSA in %.
1. O=C(O)COc1nn(-c2ccncc2)c(-c2ccc(F)nc2)c1Br
2. O=C(O)COc1nn(-c2ccnc(F)c2)c(-c2ccc(F)nc2)c1Br
3. COC(=O)C1CCN(C(=O)COc2nn(-c3ccccn3)c(-c3ccc(F)nc3)c2Br)C1 (centres unmarked)
4. O=C(COc1nn(-c2ccnc(Cl)c2)c(-c2ccc(F)nc2)c1Br)NS(=O)(=O)CC(F)(F)F
5. CCOC(=O)CN(C)S(=O)(=O)NC(=O)COc1nn(-c2ccccn2)c(-c2ccc(F)nc2)c1Br
6. CCOC(=O)COc1nn(-c2ccccn2)c(-c2ccc(F)nc2)c1C1CC1

[A]
1. 0
2. 0
3. 10
4. 10
5. 10
6. 0

Dear colleague, could you send me Pre-emergence action against ORYSA in % for each of the items below? Thanks.
1. COC(=O)CCOC(=O)COc1nn(-c2ccnc(Cl)c2)c(-c2ccc(F)nc2)c1Br
2. C[C@@H](Oc1nn(-c2ccnc(Cl)c2)c(-c2ccc(F)nc2)c1Br)C(=O)O
3. COC(=O)[C@H](C)NC(=O)COc1nn(-c2ccnc(Cl)c2)c(-c2ccc(F)nc2)c1Br

[A]
1. 20
2. 20
3. 0

* * *

Test system: Oryza sativa (ORYSA)
Format: in vivo
condition: crop plant compatibility, 80 g/ha, effect in comparison to untreated controls
Task for the reader: assign each of the following compounds its reported Post-emergence action against ORYSA in %.
Give bare numbers, in %.

Sample records with Post-emergence action against ORYSA in %:
>>> print(df.to_string())
                                   compound                             endpoint_name  observed_value
0  O=C(O)COc1nn(-c2nc(F)ccc2F)c(-c2ccc(F)nc2)c1Br [Example I-334]  Post-emergence action against ORYSA in %              20
1  CCOC(=O)[C@@H](C)Oc1nn(-c2ncccc2Cl)c(-c2ccc(F)nc2)c1Br [Example I-27]  Post-emergence action against ORYSA in %               0
2  CCOC(=O)COc1nn(-c2ccccn2)c(-c2ccc(F)nc2)c1C1CC1 [Example I-78]  Post-emergence action against ORYSA in %              20

Hi there! I need Post-emergence action against ORYSA in % for each item below, if you can.
1. COC(=O)CCOC(=O)C(C)Oc1nn(-c2ccccn2)c(-c2ccc(F)nc2)c1C(F)(F)F (centres unmarked) [Example I-293]
2. C[C@@H](Oc1nn(-c2nc(F)ccc2F)c(-c2ccc(F)nc2)c1Cl)C(=O)O [Example I-311]
3. COC(=O)[C@H](C)NC(=O)COc1nn(-c2ccccn2)c(-c2ccc(F)nc2)c1Cl [Example I-87]
4. O=C(COc1nn(-c2ccccn2)c(-c2ccc(F)nc2)c1Br)OCC1CCOC1 (centres unmarked) [Example I-90]

[A]
1. 0
2. 20
3. 0
4. 0

[Q] Please look up its Post-emergence action against ORYSA in %: C[C@@H](Oc1nn(-c2nc(F)ccc2F)c(-c2cncc(F)c2)c1Cl)C(=O)O [Example I-159]
[A] 10
